- Experimental system: T1, FLT3xCD3 TCE SEQ ID NO 93
- T1 construct: Single-chain scFv-scFv-scFc T cell engager; also called FLT3×CD3ε TCE; FLT3_7 A8xCD3-scFc Bispecific HLE molecule
- Protocol text: Table 5, ratio to a reference peptide that the table does not name
- Set-up: reference not given here
Where no end group is shown, it is not given here. Side-chain parts run from the residue outwards. [ ]: non-standard residue; d: D form. pGlu = O=C1CC[C@@H](C(=O)O)N1; disulfide = not defined here

Binder: [pGlu]DGNEEMGKGMEENGDQC([disulfide-4‑arm PEG 20 kDa]) (reading uncertain; also: four peptides on one 4-arm PEG, printed as pGlu-DGNEEMGKGMEENGDQC, also called CD3ε PepPOL, v2; Pep-PEG v2) [(pGlu-DGNEEMGKGMEENGDQC)4 -PEG(20 kDa)]
Measure unit: fold
fold-koff: 0.01
--
Binder: QDGNEEMGQDGNEEMG [QDGNEEMG-QDGNEEMG]
Measure unit: fold
fold-koff: 0.24
--
Binder: QDGNEEMGGMEENGDQ (how the reversed half is joined is not explained) [QDGNEEMG-GMEENGDQ]
Measure unit: fold
fold-koff: 0.19
--
Binder: QDGNEEMGKQDGNEEMG [QDGNEEMG-K-QDGNEEMG]
Measure unit: fold
fold-koff: 0.28

Source of measurements: patent US20260258083A1
